Can you tell me ED50 for the items I'm about to list?
- test-system: DNA gyrase (Staphylococcus aureus) (UniProt P0A0K8+P20831)
- Sequence (P0A0K8 2-644 limits assumed): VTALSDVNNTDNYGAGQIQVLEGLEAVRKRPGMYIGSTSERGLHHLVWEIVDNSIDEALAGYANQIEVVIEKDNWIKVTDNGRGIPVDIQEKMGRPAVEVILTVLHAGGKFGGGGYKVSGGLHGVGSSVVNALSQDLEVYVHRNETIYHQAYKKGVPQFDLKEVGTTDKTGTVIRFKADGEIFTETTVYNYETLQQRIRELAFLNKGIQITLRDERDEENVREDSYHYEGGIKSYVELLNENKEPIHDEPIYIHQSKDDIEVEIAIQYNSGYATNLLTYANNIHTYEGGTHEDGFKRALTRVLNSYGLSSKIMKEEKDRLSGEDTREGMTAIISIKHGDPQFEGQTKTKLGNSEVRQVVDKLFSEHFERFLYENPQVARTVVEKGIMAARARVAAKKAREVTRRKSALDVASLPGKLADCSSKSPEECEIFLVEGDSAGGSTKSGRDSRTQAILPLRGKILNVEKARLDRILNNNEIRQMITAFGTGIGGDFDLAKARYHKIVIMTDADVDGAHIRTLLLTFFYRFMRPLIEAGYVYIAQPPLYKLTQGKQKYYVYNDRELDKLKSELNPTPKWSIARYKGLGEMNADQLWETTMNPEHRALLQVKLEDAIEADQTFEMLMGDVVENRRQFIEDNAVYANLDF
- Sequence (P20831 whole entry partner): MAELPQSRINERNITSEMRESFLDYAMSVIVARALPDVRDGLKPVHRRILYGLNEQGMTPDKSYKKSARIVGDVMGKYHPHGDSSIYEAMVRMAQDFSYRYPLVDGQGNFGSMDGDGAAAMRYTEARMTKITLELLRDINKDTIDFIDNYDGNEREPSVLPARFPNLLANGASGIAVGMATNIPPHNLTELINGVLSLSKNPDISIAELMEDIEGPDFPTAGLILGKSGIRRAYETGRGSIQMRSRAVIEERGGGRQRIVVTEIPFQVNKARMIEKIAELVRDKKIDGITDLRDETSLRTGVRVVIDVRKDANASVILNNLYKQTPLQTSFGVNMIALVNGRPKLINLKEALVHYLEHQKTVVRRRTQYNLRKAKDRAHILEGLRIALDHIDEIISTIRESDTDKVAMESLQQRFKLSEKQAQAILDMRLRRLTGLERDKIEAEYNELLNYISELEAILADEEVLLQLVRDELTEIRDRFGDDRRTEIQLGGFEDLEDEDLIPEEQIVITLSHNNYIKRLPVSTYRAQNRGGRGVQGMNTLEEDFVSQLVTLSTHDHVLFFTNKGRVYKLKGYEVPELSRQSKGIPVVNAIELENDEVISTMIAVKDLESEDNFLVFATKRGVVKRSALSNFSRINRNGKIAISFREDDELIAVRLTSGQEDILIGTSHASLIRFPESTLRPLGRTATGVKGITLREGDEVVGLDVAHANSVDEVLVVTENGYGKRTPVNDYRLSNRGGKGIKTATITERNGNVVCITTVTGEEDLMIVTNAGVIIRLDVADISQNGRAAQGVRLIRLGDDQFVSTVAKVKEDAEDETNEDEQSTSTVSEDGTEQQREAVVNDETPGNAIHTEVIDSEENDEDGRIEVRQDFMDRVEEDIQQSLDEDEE
- experiment: In vivo efficacy against Staphylococcus aureus NCTC-10649M after subcutaneous administration
- Type: functional, organism-based
Numbers only, in mg/kg.

Please review the entries below; each comes with its answer.
>>> measurement("Cc1c(N2C[C@@H]3[C@@H](N)[C@@H]3C2)c(F)cn2c(=O)c(C(=O)O)cc(C3CC3)c12")
4.1
>>> measurement("Cc1c(N2CC[C@H]([C@@H](C)N)C2)c(F)cn2c(=O)c(C(=O)O)cc(C3CC3)c12")
0.3
>>> measurement("CC(NC(=O)C(C)NC1CCN(c2nc3c(-c4ccc(F)cc4F)cc(C(=O)O)c(=O)n3cc2F)C1)C(=O)O (stereo not given)")
2.8

Next compound, ED50 to be filled in.
Input NC1CCN(c2nc3c(-c4ccc(F)cc4F)cc(C(=O)O)c(=O)n3cc2F)C1 (stereo not given) , output reported ED50. 4.4

Data provenance is ChEMBL document CHEMBL1129258.
